Molecular target: T1, PSGL-1 endogenously expressed on HL-60 cells (UniProt Q14242 42-412)
T1 construct: whole, on cells
T1 sequence (looked up): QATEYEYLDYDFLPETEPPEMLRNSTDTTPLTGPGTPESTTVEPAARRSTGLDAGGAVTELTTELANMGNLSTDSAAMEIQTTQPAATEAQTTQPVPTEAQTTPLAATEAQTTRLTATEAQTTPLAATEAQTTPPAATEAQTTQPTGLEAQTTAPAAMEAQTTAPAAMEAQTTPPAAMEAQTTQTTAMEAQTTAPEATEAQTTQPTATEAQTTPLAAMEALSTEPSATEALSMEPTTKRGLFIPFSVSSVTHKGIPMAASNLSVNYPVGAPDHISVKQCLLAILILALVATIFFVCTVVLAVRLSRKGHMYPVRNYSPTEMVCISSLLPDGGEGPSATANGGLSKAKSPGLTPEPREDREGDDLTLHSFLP
Test: flow cytometry on HL-60 cells; against parent 20I15
readout_label: HL-60 EC50 (normalized) (fold)
Answers are plain numbers, in fold.

Consider the following illustrative entries.
>>> experimental_value("20I15.002 (antibody, IgG4, V domains shown, Humanised) VH: EVQLVESGGGLVQPGGSLRLSCAASGFTFTDYYMSWVRQAPGKGLEWLGFIRNKASGYTTEYSASVKGRFTISRDNSKNSLYLQMNSLKTEDTAVYYCARTYLRRGYFDVWGQGTLVTVSS VL: DIQLTQSPSTLSASVGDRVTITCRASKSVSTSGYSYMHWFQQKPGKAPKLLIYLASNLESGVPSRFSGSGSGTEFTLTISSLQPDDFATYYCQHSRELPLTFGQGTKLEIK")
0.7
>>> experimental_value("20I15.003 (antibody, IgG4, V domains shown, Humanised) VH: EVKLVESGGGLVQPGGSLRLSCAASGFTFTDYYMSWVRQAPGKGLEWLGFIRNKANGYTTEYSASVKGRFTISRDNSQNSLYLQMNSLKTEDTAVYYCARTYLRRGYFDVWGQGTLVTVSS VL: DIQLTQSPSTLSASVGDRVTITCRASKSVSTSGYSYMHWFQQKPGKAPKLLIYLASNLESGVPSRFSGSGSGTEFTLTISSLQPDDFATYYCQHSRELPLTFGQGTKLEIK")
1.1

Bench note: what HL-60 EC50 (normalized) did 20I15.007 (antibody, IgG4, V domains shown, Humanised) VH: EVKLVESGGGLVQPGGSLRLSCAASGFTFTDYYMSWVRQAPGKGLEWLGFIRNKANGYTTEYSASVKGRFTISRDNSQNSLYLQMNSLKTEDTAVYYCARTYLRRGYFDVWGQGTLVTVSS VL: DIVLTQSPSTLSASVGDRVTITCRASKSVSTSGYSYMHWFQQKPGKAPKLLIYLASNLESGVPSRFSGSGSGTDFTLTISSLQPDDFATYYCQHSRELPLTFGQGTKLEIK show? 0.6
